Reported % of Inhibition values follow for various compounds
- Tested on: Progesterone Receptors
- protocol_summary: Inhibition of 3H-Progesterone Binding to the Bovine Uteral Progesterone Receptors
- stated_conditions: competitor 10^−6M; 3H-progesterone 0.15 nM
property_name: % of Inhibition

C[C@H](O)[C@H]1CC[C@H]2[C@@H]3CC[C@H]4C[C@H](O)CC[C@]4(C)[C@H]3CC[C@]12C; 6%
CC(C)(O)[C@H]1CC[C@H]2[C@@H]3CC[C@H]4C[C@H](O)CC[C@]4(C)[C@H]3CC[C@]12C; 0%
C[C@]12CC[C@@H](O)C[C@@H]1CC[C@@H]1[C@@H]2CC[C@]2(C)[C@@H](C(=O)CO)CC[C@@H]12 [3α,21-Dihydroxy-5α-pregnan-20-one, reference compound]; 13%
